Exercise: state measured log2 ratio of Biotin-Ahx-Ub-VS probe labelling for each of the molecules provided.
# system: FAM105A (UniProt Q9NUU6)
# Sequence (whole entry): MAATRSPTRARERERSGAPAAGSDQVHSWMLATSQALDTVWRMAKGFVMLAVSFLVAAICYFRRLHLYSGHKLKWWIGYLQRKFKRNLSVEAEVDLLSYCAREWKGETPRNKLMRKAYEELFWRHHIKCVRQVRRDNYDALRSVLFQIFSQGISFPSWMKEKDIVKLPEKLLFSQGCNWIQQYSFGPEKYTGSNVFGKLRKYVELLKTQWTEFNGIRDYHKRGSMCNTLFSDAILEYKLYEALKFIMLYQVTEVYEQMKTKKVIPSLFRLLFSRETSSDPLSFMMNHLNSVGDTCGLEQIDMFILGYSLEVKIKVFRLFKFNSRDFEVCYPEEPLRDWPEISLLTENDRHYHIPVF
# assayProcedure: log2 ratio of Biotin-Ahx-Ub-VS probe labelling (fragment/DMSO); higher = less target engagement (more negative = stronger competition), active = hit call of the paper (q ≤ 0.05, log2 ratio ≤ -1)
# experimentalParameters: compound concentration: 200 uM; treatment time: 3 h
Please respond with just the number, no unit label.

Query block: Recorded log2 ratio of Biotin-Ahx-Ub-VS probe labelling of "CC(C)n1nccc1NC(=O)CCl" , please.
Result block: 0.00922

Query block: Moving on to "O=C(CCl)Nc1cc(Cl)ccc1-n1cncn1"
Result block: 0.14

Query block: Input "CNC(=O)C1(NC(=O)CCl)CCCCC1"
Result block: -0.00491

Query block: Try the molecule Cc1ccc(CC(NC(=O)CCl)c2ccccn2)cc1.Cl (stereo not given)
Result block: -0.348

Query block: And Cl.O=C(CCl)N1CCCC(c2ncc[nH]2)C1 (stereo not given) ?
Result block: 0.0977

----------
# system: USP48 (UniProt Q86UV5)
# Sequence (Q86UV5 whole entry, the tested form may be a part): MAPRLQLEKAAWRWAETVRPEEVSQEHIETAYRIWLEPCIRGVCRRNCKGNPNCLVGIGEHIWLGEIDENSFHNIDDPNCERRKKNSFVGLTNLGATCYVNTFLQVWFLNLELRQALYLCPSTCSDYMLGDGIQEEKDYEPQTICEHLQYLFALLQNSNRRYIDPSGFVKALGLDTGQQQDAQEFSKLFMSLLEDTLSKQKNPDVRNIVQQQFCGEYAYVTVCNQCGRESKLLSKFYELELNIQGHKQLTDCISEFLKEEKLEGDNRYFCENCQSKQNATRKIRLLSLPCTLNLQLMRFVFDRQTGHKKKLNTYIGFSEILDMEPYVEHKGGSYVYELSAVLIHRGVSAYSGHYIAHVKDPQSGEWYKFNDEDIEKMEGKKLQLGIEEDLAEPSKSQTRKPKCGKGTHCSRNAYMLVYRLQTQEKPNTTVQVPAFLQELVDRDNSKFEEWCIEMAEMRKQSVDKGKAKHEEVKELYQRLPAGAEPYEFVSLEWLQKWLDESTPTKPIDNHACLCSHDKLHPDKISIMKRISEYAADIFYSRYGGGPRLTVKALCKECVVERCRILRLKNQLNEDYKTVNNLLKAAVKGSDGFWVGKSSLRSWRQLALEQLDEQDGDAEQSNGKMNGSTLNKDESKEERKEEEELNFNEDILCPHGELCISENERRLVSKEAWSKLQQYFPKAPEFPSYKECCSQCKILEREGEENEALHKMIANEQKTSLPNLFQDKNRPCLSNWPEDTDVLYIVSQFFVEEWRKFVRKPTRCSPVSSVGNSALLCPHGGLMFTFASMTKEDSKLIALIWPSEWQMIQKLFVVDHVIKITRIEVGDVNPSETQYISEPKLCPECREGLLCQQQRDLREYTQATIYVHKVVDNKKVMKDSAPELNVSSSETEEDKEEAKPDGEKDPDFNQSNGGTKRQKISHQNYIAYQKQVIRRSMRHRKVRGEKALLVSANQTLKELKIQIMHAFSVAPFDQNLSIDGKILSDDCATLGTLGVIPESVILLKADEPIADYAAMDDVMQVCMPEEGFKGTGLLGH
# assayProcedure: log2 ratio of Biotin-Ahx-Ub-VS probe labelling (fragment/DMSO); higher = less target engagement (more negative = stronger competition), active = hit call of the paper (q ≤ 0.05, log2 ratio ≤ -1)
# experimentalParameters: compound concentration: 200 uM; treatment time: 3 h
Use y when the recorded log2 ratio of Biotin-Ahx-Ub-VS probe labelling is no lower than -0.5; use n when it is lower.

Query block: Does the molecule CC(NC(=O)CCl)c1noc(Cc2ccccc2)n1 (stereo not given) have recorded log2 ratio of Biotin-Ahx-Ub-VS probe labelling that is -0.5 or more?
Result block: y

Query block: Follow-up entry: O=C(CCl)NC1CCC(C(F)(F)F)CC1 (stereo not given)
Result block: y

Query block: What about this molecule? "CN(CCc1ncc(Br)cn1)C(=O)CCl.Cl"
Result block: y

Query block: Consider next the molecule "CN(C)C(=O)c1ccc(NC(=O)CCl)cc1" in the same way.
Result block: n

Query block: Then COc1ccc(C2CCCN2C(=O)CCl)c(OC)c1 (stereo not given) ?
Result block: n

----------
# system: UniProt Q5T2D3
# Sequence (whole entry): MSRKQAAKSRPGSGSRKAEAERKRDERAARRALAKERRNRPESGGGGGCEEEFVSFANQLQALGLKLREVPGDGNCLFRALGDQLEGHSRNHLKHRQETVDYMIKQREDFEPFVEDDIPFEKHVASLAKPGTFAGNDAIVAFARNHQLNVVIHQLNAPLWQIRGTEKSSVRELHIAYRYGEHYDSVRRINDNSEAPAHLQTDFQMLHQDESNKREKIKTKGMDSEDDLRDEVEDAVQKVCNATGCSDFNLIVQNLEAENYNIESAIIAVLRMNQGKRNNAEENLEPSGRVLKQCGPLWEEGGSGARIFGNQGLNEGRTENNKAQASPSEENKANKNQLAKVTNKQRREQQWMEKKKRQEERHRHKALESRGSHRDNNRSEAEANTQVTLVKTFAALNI
# assayProcedure: log2 ratio of Biotin-Ahx-Ub-VS probe labelling (fragment/DMSO); higher = less target engagement (more negative = stronger competition), active = hit call of the paper (q ≤ 0.05, log2 ratio ≤ -1)
# experimentalParameters: compound concentration: 200 uM; treatment time: 3 h
Outcome label depends on log2 ratio of Biotin-Ahx-Ub-VS probe labelling relative to -0.2: at/above gives class 1, below gives class 0.

Query block: Hi team, for CC1CCc2onc(CNC(=O)CCl)c2C1 (stereo not given) , is the recorded log2 ratio of Biotin-Ahx-Ub-VS probe labelling at or above -0.2?
Result block: class 0

Query block: Cool, now "Cc1cccc(N(CCC#N)C(=O)CCl)c1C"
Result block: class 1

Query block: Item: "O=C(CCl)N1c2ccccc2NC(=O)C12CCCC2"
Result block: class 1

Query block: Continue with COc1ccccc1C(C)NC(=O)CCl (stereo not given)
Result block: class 1

Query block: Query O=C(CCl)N1CCCCCC1c1ncon1 (stereo not given) next
Result block: class 0

Query block: Likewise for "O=C(CCl)N1CCC(OCc2ccccc2F)CC1" ?
Result block: class 1

Query block: // same read-out, input: "O=C(CCl)N[C@H]1CC[C@@H](CO)CC1"
Result block: class 0

Query block: Next record, please: "Cc1nc(CN2CCCN(C(=O)CCl)CC2)no1.Cl"
Result block: class 1

Query block: Same question, CC1Cc2ccccc2N1C(=O)CCl (stereo not given) this time
Result block: class 1

Query block: Same lookup for Cc1cc(CC(C)NC(=O)CCl)n[nH]1 (stereo not given) , please.
Result block: class 0

Query block: Lookup "Cc1ccc(C)c(Oc2ccc(CNC(=O)CCl)cn2)c1.Cl"
Result block: class 1

Query block: Same thing, different molecule: "CN(C)S(=O)(=O)c1ccccc1CNC(=O)CCl"
Result block: class 0

Query block: How about this molecule: O=C(CCl)NC1CCOc2ccccc21 (stereo not given)
Result block: class 0

Query block: // repeat for "Cl.O=C(CCl)N[C@H]1C[C@@H](n2cccn2)C1" and report
Result block: class 1

Query block: Now the molecule "C[C@@H](NC(=O)CCl)c1cccc(C#N)c1"
Result block: class 1

Query block: // repeat for "O=C(CCl)N1CCC2(CCC(O)CC2)CC1" and report
Result block: class 0

Query block: Now consider "Cc1cccc2nc(CCNC(=O)CCl)cn12.Cl" and answer again.
Result block: class 0

Query block: Proceed to "O=C(CCl)N1CCC(C(=O)N2CCCCCC2)CC1"
Result block: class 0

Query block: Also, "Cl.O=C(CCl)N1CCn2cncc2C1" please.
Result block: class 0

Query block: Also "Cc1ccccc1CN(C)C(=O)CCl" ?
Result block: class 0

Query block: Then "O=C(CCl)NCC(=O)N1CCCC1" ?
Result block: class 0

Query block: "CNC(=O)C1CCN(C(=O)CCl)CC1" ?
Result block: class 1

Query block: Can you handle "O=C(CCl)N[C@H]1CCS(=O)(=O)c2ccccc21" next?
Result block: class 1

Query block: Please give the result for "Cl.O=C(CCl)N1CCN(Cc2ccccc2)CC1" too.
Result block: class 0

Query block: // query: O=C(CCl)N1CCOC(c2cccc(F)c2)C1 (stereo not given)
Result block: class 1

Query block: Now consider "O=C(CCl)N1CCC(c2noc3cc(F)ccc23)CC1" and answer again.
Result block: class 0

Query block: Try "O=C(CCl)NCCc1ccc(F)cc1" next.
Result block: class 1

Query block: Another molecule to check: "O=C(CCl)N(C1=CCCCC1)C1CC1"
Result block: class 1

Query block: Next molecule: "CN(Cc1nc2ccccc2[nH]1)C(=O)CCl.Cl"
Result block: class 1

Query block: Same thing, different molecule: "O=C(CCl)NCc1ccc(N2CCOCC2)nc1"
Result block: class 0

Query block: Continue with "COc1ccc(CN(C)C(=O)CCl)cc1"
Result block: class 0

Query block: Also "Cc1cc(NC(=O)CCl)n(-c2ccccc2)n1" ?
Result block: class 1

Query block: Also need "COc1cc(Cl)c(C)cc1NC(=O)CCl" , thanks.
Result block: class 0

Query block: Proceed to Cc1cc(C2CCCN2C(=O)CCl)nn1C.Cl (stereo not given)
Result block: class 1

Query block: Same again, this time with "O=C(CCl)Nc1ccc(F)cc1Cl"
Result block: class 0

Query block: Proceed to "O=C(CCl)Nc1cccc2ncccc12"
Result block: class 1

Query block: // same read-out, input: "Cc1cc(C(=O)NC2CCN(C(=O)CCl)CC2)no1"
Result block: class 0

Query block: Then what about the molecule Cl.O=C(CCl)N1CCC(Cc2nccs2)C1 (stereo not given) ?
Result block: class 0

Query block: Next record, please: "CN1C(=O)c2ccc(NC(=O)CCl)cc2C1=O"
Result block: class 0

Query block: Then this molecule: O=C(CCl)N1CCC(c2ccn[nH]2)C1 (stereo not given)
Result block: class 1

Query block: Entry "O=C(CCl)NCc1ccc(Cl)cc1" please
Result block: class 1

Query block: Similarly, Cc1ccc(CC(NC(=O)CCl)c2ccccn2)cc1.Cl (stereo not given) ?
Result block: class 1

Query block: Follow-up item: "O=C(CCl)NC1(c2ccc3c(c2)OCCO3)CCCC1"
Result block: class 0

Query block: // repeat for "Cc1ncsc1CCNC(=O)CCl" and report
Result block: class 1

Query block: Likewise for "O=C(CCl)N1CCN(C(=O)Nc2ccccc2)CC1" ?
Result block: class 1
